Target: DNA topoisomerase I (Top I) (Escherichia coli)
Construct: gene topA
Sequence (P06612 whole entry): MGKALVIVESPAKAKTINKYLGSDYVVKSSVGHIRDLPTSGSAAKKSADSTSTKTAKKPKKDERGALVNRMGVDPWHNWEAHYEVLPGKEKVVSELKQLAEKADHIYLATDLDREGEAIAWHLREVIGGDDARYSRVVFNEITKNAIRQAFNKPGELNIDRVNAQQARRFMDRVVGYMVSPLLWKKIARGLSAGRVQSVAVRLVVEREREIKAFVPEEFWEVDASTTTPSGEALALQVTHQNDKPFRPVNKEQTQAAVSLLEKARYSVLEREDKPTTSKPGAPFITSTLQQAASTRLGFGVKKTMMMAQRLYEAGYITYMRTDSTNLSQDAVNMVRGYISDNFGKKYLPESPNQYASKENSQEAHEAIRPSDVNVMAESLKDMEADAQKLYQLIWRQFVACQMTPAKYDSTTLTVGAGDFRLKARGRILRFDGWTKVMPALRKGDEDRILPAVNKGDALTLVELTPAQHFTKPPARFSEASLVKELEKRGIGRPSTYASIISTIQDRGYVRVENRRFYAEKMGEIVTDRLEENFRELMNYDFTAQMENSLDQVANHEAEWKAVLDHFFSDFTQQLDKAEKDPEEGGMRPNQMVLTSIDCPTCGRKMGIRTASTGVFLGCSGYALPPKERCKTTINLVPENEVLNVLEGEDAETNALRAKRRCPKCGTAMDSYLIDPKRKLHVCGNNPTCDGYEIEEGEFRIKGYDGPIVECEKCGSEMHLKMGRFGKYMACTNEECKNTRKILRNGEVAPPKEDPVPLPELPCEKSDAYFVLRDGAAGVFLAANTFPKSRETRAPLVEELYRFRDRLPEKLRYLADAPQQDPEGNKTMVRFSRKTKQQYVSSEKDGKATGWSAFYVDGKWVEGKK
Assay: in vitro Top I inhibition assay (absorbance, plate reader); also affinity ultrafiltration HPLC-MS, EF […]
Format: biochemical
MEASURE: pIC50
# pIC50: negative log10 of molar concentration; output just the value

Observed pIC50 on DNA topoisomerase I (Top I) (Escherichia coli), entry CN1CCC2=C[C@H](O)[C@H]3OC(=O)c4cc5c(cc4[C@H]3[C@@H]21)OCO5 , equals 4.64
